test system: RARb:RXRa (NR concentration 270 nM, RXRa partner concentration 90 nM); assay: PBM binding z-score (relative to random genomic background probes); higher = stronger binding; sequences stand for … in GC…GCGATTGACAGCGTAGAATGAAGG
measurement_name: PBM binding z-score

>>> df
                             sequence                           measured_target     measurement_name  experimental_value
0  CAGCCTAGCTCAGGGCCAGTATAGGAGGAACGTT  RARb:RXRa (NR concentration 270 nM, RXRa partner concentration 90 nM)  PBM binding z-score              -0.591
1  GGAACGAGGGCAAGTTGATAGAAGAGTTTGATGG  RARb:RXRa (NR concentration 270 nM, RXRa partner concentration 90 nM)  PBM binding z-score                2.64
2  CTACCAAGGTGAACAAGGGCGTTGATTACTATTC  RARb:RXRa (NR concentration 270 nM, RXRa partner concentration 90 nM)  PBM binding z-score                1.81
3  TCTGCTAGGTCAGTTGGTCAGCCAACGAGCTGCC  RARb:RXRa (NR concentration 270 nM, RXRa partner concentration 90 nM)  PBM binding z-score                 3.3
4  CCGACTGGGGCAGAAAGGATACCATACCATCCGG  RARb:RXRa (NR concentration 270 nM, RXRa partner concentration 90 nM)  PBM binding z-score              0.0733

In the following, a different sequence is considered.
Request - read-out PBM binding z-score | tested on RARb:RXRa (NR concentration 270 nM, RXRa partner concentration 90 nM) | sequence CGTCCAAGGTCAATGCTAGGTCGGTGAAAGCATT
4.95

====

test system: VDR homodimer (NR concentration 270 nM); assay: PBM binding z-score (relative to random genomic background probes); higher = stronger binding; sequences stand for … in GC…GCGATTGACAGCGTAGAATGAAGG
measurement_name: PBM binding z-score

These recorded examples may help you get a feel for the data.
>>> df
                             sequence                          measured_target  experimental_value
0  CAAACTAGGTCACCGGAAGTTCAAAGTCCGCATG  VDR homodimer (NR concentration 270 nM)                 4.8
1  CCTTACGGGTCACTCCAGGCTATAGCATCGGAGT  VDR homodimer (NR concentration 270 nM)               0.841
2  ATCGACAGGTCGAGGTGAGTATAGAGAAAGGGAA  VDR homodimer (NR concentration 270 nM)              0.0129

In the following, a different sequence is considered.
Given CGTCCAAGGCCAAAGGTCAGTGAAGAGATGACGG , state its recorded PBM binding z-score.
0.884

====

Reported PBM binding z-score values for a set of sequences
tested on: PPARg homodimer (NR concentration 180 nM); assay: PBM binding z-score (relative to random genomic background probes); higher = stronger binding; sequences stand for … in GC…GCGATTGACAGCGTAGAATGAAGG

These recorded examples may help you get a feel for the data.
>>> df
                             sequence     measurement_name  experimental_value
0  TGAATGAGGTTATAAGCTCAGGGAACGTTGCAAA  PBM binding z-score             -0.0591
1  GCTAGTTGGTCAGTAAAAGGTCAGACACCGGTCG  PBM binding z-score                3.21
2  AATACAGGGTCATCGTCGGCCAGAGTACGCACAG  PBM binding z-score                   3
3  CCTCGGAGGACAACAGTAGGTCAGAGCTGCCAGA  PBM binding z-score               0.785
4  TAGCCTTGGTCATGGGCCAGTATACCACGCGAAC  PBM binding z-score              -0.713

Given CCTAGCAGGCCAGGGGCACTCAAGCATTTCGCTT , state its recorded PBM binding z-score.
-1.02

Given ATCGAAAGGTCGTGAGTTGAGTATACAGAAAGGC , state its recorded PBM binding z-score.
1.91

Given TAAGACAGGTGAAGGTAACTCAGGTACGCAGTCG , state its recorded PBM binding z-score.
0.394

Given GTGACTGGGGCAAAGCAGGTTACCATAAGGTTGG , state its recorded PBM binding z-score.
0.994

Given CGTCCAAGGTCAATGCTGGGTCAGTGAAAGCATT , state its recorded PBM binding z-score.
4.17

Given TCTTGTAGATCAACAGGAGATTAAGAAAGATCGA , state its recorded PBM binding z-score.
-0.322

Given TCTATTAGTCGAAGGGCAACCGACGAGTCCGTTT , state its recorded PBM binding z-score.
0.702
